Target: cdk2
Test: in vitro cdk2 kinase assay with GST-fusion proteins, histone H1 substrate
Assay type: biochemical
Design: key: P=positive; N=negative
Conditions: 0.1 μg GST-fusion protein, cdk2 immunoprecipitated from NIH/3T3
Recorded Endpoint: Kinase assay (inhibitory effect on cdk2 activity)

{"Molecule": "Spacer: full-length pRb2/p130 spacer domain, amino acids 616-828 (SEQ ID NO:20) (protein, listed as Homo sapiens) VPTCEEVMPPQNLERADEICIAGSPLTPRRVTEVRADTGGLGRSITSPTTLYDRYSSPPASTTRRRLFVENDSPSDGGTPGRMPPQPLVNAVPVQNVSGETVSVTPVPGQTLVTMATATVTANNGQTVTIPVQGIANENGGITFFPVQVNVGGQAQAVTGSIQPLSAQALAGSLSSQQVTGTTLQVPGQVAIQQISPGGQQQKQGQSVTSSSN", "Result Value": "P"}
{"Molecule": "Spc: pRb2/p130 spacer fragment, amino acids 755-828, 73 amino acids (protein, left off: a dimerising Fc or GST, pRb2/p130 spacer fragment, amino acids 755-828, 73 amino acids) GGITFFPVQVNVGGQAQAVTGSIQPLSAQALAGSLSSQQVTGTTLQVPGQVAIQQISPGGQQQKQGQSVTSSSN", "Result Value": "N"}
{"Molecule": "Spa: pRb2/p130 spacer fragment, amino acids 616-711, 96 amino acids (protein, left off: a dimerising Fc or GST) VPTCEEVMPPQNLERADEICIAGSPLTPRRVTEVRADTGGLGRSITSPTTLYDRYSSPPASTTRRRLFVENDSPSDGGTPGRMPPQPLVNAVPVQN", "Result Value": "P"}
{"Molecule": "Spa23: Table 1 construct: pRb2/p130 spacer fragment, amino acids 641-711, 71 amino acids (protein, left off: a dimerising Fc or GST) LTPRRVTEVRADTGGLGRSITSPTTLYDRYSSPPASTTRRRLFVENDSPSDGGTPGRMPPQPLVNAVPVQN", "Result Value": "P"}
